Hey, just so you know, these numbers are from ChEMBL document CHEMBL5291721.

Tested system: UniProtKB P03372
Sequence (P03372 whole entry): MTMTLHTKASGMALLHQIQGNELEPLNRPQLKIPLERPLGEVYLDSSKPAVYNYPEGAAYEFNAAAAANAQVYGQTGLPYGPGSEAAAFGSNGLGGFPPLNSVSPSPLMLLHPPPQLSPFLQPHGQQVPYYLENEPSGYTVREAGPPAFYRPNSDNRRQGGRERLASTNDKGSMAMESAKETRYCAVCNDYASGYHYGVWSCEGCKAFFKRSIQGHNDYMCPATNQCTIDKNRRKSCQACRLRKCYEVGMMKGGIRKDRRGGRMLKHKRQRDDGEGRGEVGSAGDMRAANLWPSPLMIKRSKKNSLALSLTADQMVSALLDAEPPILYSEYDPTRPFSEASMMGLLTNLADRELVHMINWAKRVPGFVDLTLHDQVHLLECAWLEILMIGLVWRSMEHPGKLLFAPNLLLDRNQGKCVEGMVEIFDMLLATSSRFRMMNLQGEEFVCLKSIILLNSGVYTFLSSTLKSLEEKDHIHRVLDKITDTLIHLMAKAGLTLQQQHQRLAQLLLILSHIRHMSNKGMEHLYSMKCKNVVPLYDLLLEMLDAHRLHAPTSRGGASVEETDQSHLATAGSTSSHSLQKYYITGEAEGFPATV
Readout type: AC50

Before answering, review these 3 worked examples.
{"columns": ["Molecule", "Result"],
 "data": [
  ["CCN(CC)CCn1c(=O)c(Cc2ccc(OC)cc2)nc2ccccc21", "> 30 µM"],
  ["Cc1c(C)c2c(c(C)c1O)CCC(C)(COc1ccc(CC3SC(=O)NC3=O)cc1)O2 (centres undefined)", "> 30 µM"],
  ["O=C(O)COC(=O)Cc1ccccc1Nc1c(Cl)cccc1Cl", "> 30 µM"]
]}

Please examine the following record next.
input: // output AC50; input N=C(N)NC(=O)c1nc(Cl)c(N)nc1N [AMILORIDE] ; system UniProtKB P03372
output: > 30 µM

====

Measured AC50 values are reported for all entries that follow.
Tested system: 5-hydroxytryptamine receptor 2A (Homo sapiens, UniProt P28223); also: assay procedure not described here
Sequence (P28223 whole entry): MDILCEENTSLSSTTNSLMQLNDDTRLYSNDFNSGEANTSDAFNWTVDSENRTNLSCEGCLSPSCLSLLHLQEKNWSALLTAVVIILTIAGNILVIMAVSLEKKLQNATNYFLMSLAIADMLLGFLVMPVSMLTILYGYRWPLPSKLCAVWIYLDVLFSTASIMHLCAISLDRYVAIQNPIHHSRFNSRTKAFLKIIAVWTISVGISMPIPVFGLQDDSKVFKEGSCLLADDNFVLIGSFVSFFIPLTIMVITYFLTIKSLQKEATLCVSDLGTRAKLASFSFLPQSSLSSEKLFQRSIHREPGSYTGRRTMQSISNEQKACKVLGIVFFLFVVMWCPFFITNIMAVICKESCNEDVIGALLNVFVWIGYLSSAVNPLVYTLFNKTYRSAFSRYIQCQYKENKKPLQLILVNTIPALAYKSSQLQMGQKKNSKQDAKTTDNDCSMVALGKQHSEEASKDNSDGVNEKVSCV
Type: functional, cell-based

Before answering, review these 6 worked examples.
{"columns": ["Compound", "Result"],
 "data": [
  ["CN(C)CCOC(c1ccc(Cl)cc1)c1ccccn1 (stereo unspecified)", "> 30 µM"],
  ["CCCCCCOC(=O)NC(=N)c1ccc(NCc2nc3cc(C(=O)N(CCC(=O)OCC)c4ccccn4)ccc3n2C)cc1 [DABIGATRAN ETEXILATE]", "> 30 µM"],
  ["O=C(C[S+]([O-])Cc1ccco1)NC/C=C\\COc1cc(CN2CCCCC2)ccn1 (stereo unspecified)", "> 30 µM"],
  ["CCCCOC(=O)C(=O)Nc1cccc(-c2nnn[nH]2)c1", "> 30 µM"],
  ["CO/N=C(\\C(=O)N[C@@H]1C(=O)N2C(C(=O)O)=C(CSc3nc(C)c(CC(=O)O)s3)CS[C@H]12)c1csc(N)n1", "> 30 µM"],
  ["CN1CC2c3ccccc3Oc3ccc(Cl)cc3C2C1 (stereo unspecified)", "0.0002 µM"]
]}

input: // output AC50; input C[C@]12CCC(=O)C=C1[C@@H]1C[C@@H]1[C@H]1[C@@H]3[C@@H]4C[C@@H]4[C@@]4(CCC(=O)O4)[C@@]3(C)CC[C@@H]12 ; system 5-hydroxytryptamine receptor 2A (Homo sapiens, UniProt P28223); also: assay procedure not described here
output: 24 µM

input: // output AC50; input COc1cc(C(=O)NCc2ccc(OCCN(C)C)cc2)cc(OC)c1OC [TRIMETHOBENZAMIDE] ; system 5-hydroxytryptamine receptor 2A (Homo sapiens, UniProt P28223); also: assay procedure not described here
output: > 30 µM

input: // output AC50; input COc1ccc(-c2cc(=S)ss2)cc1 ; system 5-hydroxytryptamine receptor 2A (Homo sapiens, UniProt P28223); also: assay procedure not described here
output: > 30 µM

input: // output AC50; input CCN(CC)Cc1nccn1-c1ccc([N+](=O)[O-])cc1C(=O)c1ccccc1Cl ; system 5-hydroxytryptamine receptor 2A (Homo sapiens, UniProt P28223); also: assay procedure not described here
output: > 30 µM

input: // output AC50; input CCNC(=O)CCC/C=C\C[C@@H]1[C@@H](/C=C/[C@@H](O)CCc2ccccc2)[C@H](O)C[C@@H]1O ; system 5-hydroxytryptamine receptor 2A (Homo sapiens, UniProt P28223); also: assay procedure not described here
output: > 30 µM

input: // output AC50; input Cc1cn(-c2cc(NC(=O)c3ccc(C)c(Nc4nccc(-c5cnccn5)n4)c3)cc(C(F)(F)F)c2)cn1 ; system 5-hydroxytryptamine receptor 2A (Homo sapiens, UniProt P28223); also: assay procedure not described here
output: > 30 µM

input: // output AC50; input CC(C)(CO)c1cc2cc(NC(=O)C3(c4ccc5c(c4)OC(F)(F)O5)CC3)c(F)cc2n1C[C@@H](O)CO ; system 5-hydroxytryptamine receptor 2A (Homo sapiens, UniProt P28223); also: assay procedure not described here
output: 16 µM

====

Tested system: Type-1 angiotensin II receptor (Homo sapiens); also: assay procedure not described here
Sequence (P30556 whole entry): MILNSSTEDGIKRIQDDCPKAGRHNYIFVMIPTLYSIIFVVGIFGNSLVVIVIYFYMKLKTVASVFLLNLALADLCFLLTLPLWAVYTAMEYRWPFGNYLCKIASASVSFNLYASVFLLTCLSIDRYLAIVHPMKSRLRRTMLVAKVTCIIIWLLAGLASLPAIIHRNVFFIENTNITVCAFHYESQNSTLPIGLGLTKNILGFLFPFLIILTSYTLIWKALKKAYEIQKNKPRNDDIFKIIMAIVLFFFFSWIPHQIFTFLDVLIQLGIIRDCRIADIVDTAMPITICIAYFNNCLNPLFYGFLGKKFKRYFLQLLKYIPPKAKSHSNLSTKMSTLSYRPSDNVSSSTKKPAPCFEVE
Measured AC50 values are reported for all entries that follow.

Before answering, review these 4 worked examples.
{"columns": ["Entry smiles", "Tested system", "Readout type", "Result"],
 "data": [
  ["N[C@@H](Cc1cc(I)c(Oc2cc(I)c(O)c(I)c2)c(I)c1)C(=O)O", "Type-1 angiotensin II receptor (Homo sapiens)", "AC50", "> 30 µM"],
  ["CCN(C(C)=O)c1cccc(-c2ccnc3c(C#N)cnn23)c1", "Type-1 angiotensin II receptor (Homo sapiens)", "AC50", "> 30 µM"],
  ["CCN(CC)CCn1c(=O)c(Cc2ccc(OC)cc2)nc2ccccc21", "Type-1 angiotensin II receptor (Homo sapiens)", "AC50", "> 30 µM"],
  ["COc1ccc(-n2nc(C(N)=O)c3c2C(=O)N(c2ccc(N4CCCCC4=O)cc2)CC3)cc1", "Type-1 angiotensin II receptor (Homo sapiens)", "AC50", "> 30 µM"]
]}

Please examine the following record next.
input: // output AC50; input Cc1nnc2n1-c1ccc(Cl)cc1C(c1ccccc1)=NC2 ; system Type-1 angiotensin II receptor (Homo sapiens); also: assay procedure not described here
output: > 30 µM

====

Tested system: Voltage-gated inwardly rectifying potassium channel KCNH2 (Homo sapiens); also: assay procedure not described here
Sequence (Q12809 whole entry): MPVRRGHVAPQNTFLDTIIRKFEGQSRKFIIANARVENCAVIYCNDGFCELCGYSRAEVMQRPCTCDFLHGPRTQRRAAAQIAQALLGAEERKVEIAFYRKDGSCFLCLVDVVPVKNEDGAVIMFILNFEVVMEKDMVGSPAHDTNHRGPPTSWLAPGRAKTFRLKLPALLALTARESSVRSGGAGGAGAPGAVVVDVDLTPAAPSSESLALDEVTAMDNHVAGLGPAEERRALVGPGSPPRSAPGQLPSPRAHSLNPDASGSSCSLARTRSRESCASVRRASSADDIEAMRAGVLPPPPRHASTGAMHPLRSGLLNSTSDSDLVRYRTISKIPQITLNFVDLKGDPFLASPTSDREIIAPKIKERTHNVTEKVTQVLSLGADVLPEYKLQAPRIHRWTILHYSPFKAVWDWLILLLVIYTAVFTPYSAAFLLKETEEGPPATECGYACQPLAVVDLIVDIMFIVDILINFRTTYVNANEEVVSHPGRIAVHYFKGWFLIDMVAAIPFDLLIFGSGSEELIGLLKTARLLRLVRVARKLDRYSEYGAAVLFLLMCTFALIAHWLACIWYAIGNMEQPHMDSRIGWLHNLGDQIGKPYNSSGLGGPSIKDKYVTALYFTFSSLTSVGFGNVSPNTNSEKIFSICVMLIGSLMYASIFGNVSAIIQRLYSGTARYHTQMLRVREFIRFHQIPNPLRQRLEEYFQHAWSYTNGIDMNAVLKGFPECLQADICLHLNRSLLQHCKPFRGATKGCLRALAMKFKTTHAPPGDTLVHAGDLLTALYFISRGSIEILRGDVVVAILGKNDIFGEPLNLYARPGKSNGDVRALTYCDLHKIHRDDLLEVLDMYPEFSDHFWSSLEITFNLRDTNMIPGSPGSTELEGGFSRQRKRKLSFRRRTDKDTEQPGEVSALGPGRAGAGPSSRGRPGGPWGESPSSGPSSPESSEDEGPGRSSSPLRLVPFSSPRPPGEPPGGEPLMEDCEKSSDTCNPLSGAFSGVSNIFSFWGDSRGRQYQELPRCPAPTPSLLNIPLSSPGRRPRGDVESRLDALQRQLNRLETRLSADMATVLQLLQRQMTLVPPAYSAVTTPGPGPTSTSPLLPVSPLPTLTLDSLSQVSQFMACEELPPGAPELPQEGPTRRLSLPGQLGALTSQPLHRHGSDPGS
Assay type: functional
Run conditions: read-out: AC50; also: assay procedure not described here
Measured AC50 values are reported for all entries that follow.

{"columns": ["Compound", "Result"],
 "data": [
  ["CC(=O)OCC(=O)[C@@]1(OC(C)=O)[C@@H](C)C[C@H]2[C@@H]3C[C@H](F)C4=CC(=O)C=C[C@]4(C)[C@@]3(F)[C@@H](O)C[C@@]21C [DIFLORASONE DIACETATE]", "> 30 µM"],
  ["Cc1ccc(Cl)c(Nc2ccccc2C(=O)O)c1Cl [MECLOFENAMIC ACID]", "> 30 µM"],
  ["CCN(CCO)CCCC(C)Nc1ccnc2cc(Cl)ccc12 (configuration not stated) [HYDROXYCHLOROQUINE]", "7.4 µM"],
  ["CCN(CC)CCn1c(=O)c(Cc2ccc(OC)cc2)nc2ccccc21 [CAROVERINE]", "0.16 µM"],
  ["O=c1[nH]cc(F)c(=O)[nH]1 [FLUOROURACIL]", "> 30 µM"],
  ["CN(C)[C@@H]1C(O)=C(C(=O)NCN2CCCC2)C(=O)[C@@]2(O)C(O)=C3C(=O)c4c(O)cccc4[C@@](C)(O)[C@H]3C[C@@H]12 [ROLITETRACYCLINE]", "> 30 µM"]
]}

input: Find the measured AC50 of O=C(c1ccccc1)c1ccc2n1CCC2C(=O)O (configuration not stated) [KETOROLAC] and report it.
output: > 30 µM

input: Find the measured AC50 of CCN(CC)Cc1nccn1-c1ccc([N+](=O)[O-])cc1C(=O)c1ccccc1Cl [NIZOFENONE] and report it.
output: 1.38 µM

====

Record set of AC50 for target or system B2 bradykinin receptor (Homo sapiens, UniProt P30411). Also: assay procedure not described here.

Before answering, review these 3 worked examples.
{"columns": ["Molecule", "AC50"],
 "data": [
  ["OCCN(CCO)c1nc(N2CCCCC2)c2nc(N(CCO)CCO)nc(N3CCCCC3)c2n1", "> 30 µM"],
  ["CCN(CC)CCn1c(=O)c(Cc2ccc(OC)cc2)nc2ccccc21", "> 30 µM"],
  ["CC(=O)OCC1=C(C(=O)O)N2C(=O)[C@@H](NC(=O)CSc3ccncc3)[C@H]2SC1", "> 10 µM"]
]}

Please examine the following record next.
input: Find the measured AC50 of OCCOCCN1CCN(C(c2ccccc2)c2ccc(Cl)cc2)CC1 (centres undefined) [HYDROXYZINE] and report it.
output: > 30 µM

====

Record set of AC50 for target or system Alpha-2A adrenergic receptor (Homo sapiens). Also: assay procedure not described here.

Before answering, review these 3 worked examples.
{"columns": ["Compound", "AC50"],
 "data": [
  ["COc1cc(C(=O)NCc2ccc(OCCN(C)C)cc2)cc(OC)c1OC [TRIMETHOBENZAMIDE]", "> 30 µM"],
  ["CC(=O)OCC(=O)[C@@]1(OC(C)=O)[C@@H](C)C[C@H]2[C@@H]3C[C@H](F)C4=CC(=O)C=C[C@]4(C)[C@@]3(F)[C@@H](O)C[C@@]21C [DIFLORASONE DIACETATE]", "> 30 µM"],
  ["O=C(OOC(=O)c1ccccc1)c1ccccc1 [BENZOYL PEROXIDE]", "> 30 µM"]
]}

input: // output AC50; input CN(C)CCN(Cc1ccccc1)c1ccccn1 [TRIPELENNAMINE] ; system Alpha-2A adrenergic receptor (Homo sapiens); also: assay procedure not described here
output: 3.08 µM

input: // output AC50; input Cc1cn(-c2cc(NC(=O)c3ccc(C)c(Nc4nccc(-c5cnccn5)n4)c3)cc(C(F)(F)F)c2)cn1 [RADOTINIB] ; system Alpha-2A adrenergic receptor (Homo sapiens); also: assay procedure not described here
output: > 30 µM

input: // output AC50; input N#Cc1ccnc(N2C(=O)CC[C@H]2C(=O)N(c2cncc(F)c2)[C@H](C(=O)NC2CC(F)(F)C2)c2ccccc2Cl)c1 [IVOSIDENIB] ; system Alpha-2A adrenergic receptor (Homo sapiens); also: assay procedure not described here
output: > 30 µM

input: // output AC50; input Nc1ccc(C(=O)NCC(=O)O)cc1 [AMINOHIPPURIC ACID] ; system Alpha-2A adrenergic receptor (Homo sapiens); also: assay procedure not described here
output: > 30 µM

input: // output AC50; input CCCCCCCCCCCCCCCC(=O)OC[C@H](COP(=O)([O-])OCC[N+](C)(C)C)OC(=O)CCCCCCCCCCCCCCC [COLFOSCERIL PALMITATE] ; system Alpha-2A adrenergic receptor (Homo sapiens); also: assay procedure not described here
output: > 30 µM

input: // output AC50; input CC1=C(C/C=C(\C)CCC[C@H](C)CCC[C@H](C)CCCC(C)C)C(=O)c2ccccc2C1=O [PHYTONADIONE] ; system Alpha-2A adrenergic receptor (Homo sapiens); also: assay procedure not described here
output: > 30 µM

input: // output AC50; input COCC(=O)O[C@]1(CCN(C)CCCc2nc3ccccc3[nH]2)CCc2cc(F)ccc2[C@@H]1C(C)C [MIBEFRADIL] ; system Alpha-2A adrenergic receptor (Homo sapiens); also: assay procedure not described here
output: 23.4 µM

input: // output AC50; input CCCCC(=O)O[C@H]1CC[C@H]2[C@@H]3CCc4cc(O)ccc4[C@H]3CC[C@]12C [ESTRADIOL VALERATE] ; system Alpha-2A adrenergic receptor (Homo sapiens); also: assay procedure not described here
output: > 30 µM

input: // output AC50; input CC1=C(/C=C/C(C)=C\C=C\C(C)=C\C(=O)O)C(C)(C)CCC1 [ALITRETINOIN] ; system Alpha-2A adrenergic receptor (Homo sapiens); also: assay procedure not described here
output: > 30 µM

input: // output AC50; input CC(CN(C)C)CN1c2ccccc2CCc2ccccc21 (configuration not stated) [TRIMIPRAMINE] ; system Alpha-2A adrenergic receptor (Homo sapiens); also: assay procedure not described here
output: 1.27 µM

input: // output AC50; input CCCCCCCC/C=C\CCCCCCCC(=O)O [OLEIC ACID] ; system Alpha-2A adrenergic receptor (Homo sapiens); also: assay procedure not described here
output: > 30 µM

input: // output AC50; input C#CCN(C)Cc1ccccc1 [PARGYLINE] ; system Alpha-2A adrenergic receptor (Homo sapiens); also: assay procedure not described here
output: > 30 µM

input: // output AC50; input CNC(=O)c1cnn(-c2nc(N)c3ncn([C@@H]4O[C@H](CO)[C@@H](O)[C@H]4O)c3n2)c1 [REGADENOSON ANHYDROUS] ; system Alpha-2A adrenergic receptor (Homo sapiens); also: assay procedure not described here
output: > 30 µM

input: // output AC50; input OC[C@H]1NC[C@H](O)[C@@H](O)[C@H]1O ; system Alpha-2A adrenergic receptor (Homo sapiens); also: assay procedure not described here
output: > 30 µM
